Experiment: Solubility data of compounds in water over the pH range
Type: physicochemical
Conditions: pH 6.26
Where a SMILES comes first, the peptide text is derived from it. Bridges are numbered along the chain shown (N, C = ends). [ ]: non-standard residue; d: D form. The star is where a group is joined. C16 diacid = O=C(O)CCCCCCCCCCCCCCC(=O)*; Hyp = O=C(O)[C@@H]1C[C@@H](O)CN1; NTA = O=C(O)CN(CC(=O)O)CC(=O)*; Nle = CCCC[C@H](N)C(=O)O; AEEA = NCCOCCOCC(=O)O
Test Readout: solubility at 3 days (µM)

Molecule	Test Readout	Quantitative Result
CCCC[C@H](NC(=O)[C@H](CCCCNC(=O)CN(CC(=O)O)CC(=O)O)NC(=O)[C@H](CO)NC(=O)[C@H](CCC(N)=O)NC(=O)[C@H](CO)NC(=O)CNC(=O)COCCOCCNC(=O)CCCCCCCCCCCCCCC(=O)O)C(=O)N[C@H]1CCC(=O)NCCCC[C@@H](C(N)=O)NC(=O)[C@H](Cc2c[nH]c3ccccc23)NC(=O)[C@H](CCCNC(=N)N)NC(=O)[C@@H](Cc2ccccc2)NC(=O)[C@@H]2C[C@@H](O)CN2C1=O [Example 21] ({C16 diacid-AEEA}-GSQSK(NTA)[Nle]E[Hyp][dF]RWK-NH2; lactam 7-12)	solubility at 3 days	108

====

Experiment: Solubility data of compounds in water over the pH range
Assay type: physicochemical
Details: pH 5.23, pH 5.23; read-out: Conc (solubility in water)
Where a SMILES comes first, the peptide text is derived from it. Bridges are numbered along the chain shown (N, C = ends). [ ]: non-standard residue; d: D form. The star is where a group is joined. Palmitoyl(16-(5-tetrazolyl)) = O=C(CCCCCCCCCCCCCCCc1nnn[nH]1)*; Lys(CH2CO2H)2 = N[C@@H](CCCCN(CC(=O)O)CC(=O)O)C(=O)O; Hyp = O=C(O)[C@@H]1C[C@@H](O)CN1; Nle = CCCC[C@H](N)C(=O)O; AEEA = NCCOCCOCC(=O)O

Compound	solubility at 3 days / µM
CCCC[C@H](NC(=O)[C@H](CCCCN(CC(=O)O)CC(=O)O)NC(=O)[C@H](CO)NC(=O)[C@H](CCC(N)=O)NC(=O)[C@H](CO)NC(=O)CNC(=O)COCCOCCNC(=O)CCCCCCCCCCCCCCCc1nnn[nH]1)C(=O)N[C@H]1CCC(=O)NCCCC[C@@H](C(N)=O)NC(=O)[C@H](Cc2c[nH]c3ccccc23)NC(=O)[C@H](CCCNC(=N)N)NC(=O)[C@@H](Cc2ccccc2)NC(=O)[C@@H]2C[C@@H](O)CN2C1=O [Example 5] ({Palmitoyl(16-(5-tetrazolyl))-AEEA}-GSQS[Lys(CH2CO2H)2][Nle]E[Hyp][dF]RWK-NH2; lactam 7-12)	30

====

Property: pKi; scope: individual molecules
Molecular target: MC1 receptor (Homo sapiens)
Construct: expressed in transfected cells
Sequence (Q01726 whole entry): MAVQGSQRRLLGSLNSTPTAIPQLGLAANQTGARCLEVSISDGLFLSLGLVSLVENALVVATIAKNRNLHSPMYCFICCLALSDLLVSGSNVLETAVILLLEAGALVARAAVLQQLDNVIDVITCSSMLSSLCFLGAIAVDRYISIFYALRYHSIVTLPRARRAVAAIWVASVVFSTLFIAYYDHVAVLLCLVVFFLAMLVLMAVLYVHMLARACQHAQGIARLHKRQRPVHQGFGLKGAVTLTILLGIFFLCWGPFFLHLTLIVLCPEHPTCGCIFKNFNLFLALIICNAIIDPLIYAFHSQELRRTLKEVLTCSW
Experiment: Assay (IV) Melanocortin Receptor 1 (MC1) binding assay
pKi: −log10 of the molar value. *1 amine or outer side, *2 acyl side, *3 side chain or, on linkers, in order; H or OH if unused. Where a SMILES comes first, the peptide text is derived from it. Bridges are numbered along the chain shown (N, C = ends). [ ]: non-standard residue; d: D form. The star is where a group is joined. Palmitoyl(16-(5-tetrazolyl)) = O=C(CCCCCCCCCCCCCCCc1nnn[nH]1)*; X2 = O=C(CCCCCCCCCCCCCCCc1nnn[nH]1)NS(=O)(=O)CCCC(=O)*; Lys(CH2CO2H)2 = N[C@@H](CCCCN(CC(=O)O)CC(=O)O)C(=O)O; X1 = O=C(O)CN(CC(=O)O)C[C@H](N[*:1])C(=O)[*:2]; Hyp = O=C(O)[C@@H]1C[C@@H](O)CN1; NTA = O=C(O)CN(CC(=O)O)CC(=O)*; Nle = CCCC[C@H](N)C(=O)O; Dap = NC[C@H](N)C(=O)O; AEEA = NCCOCCOCC(=O)O

Molecule	System Under Test	Censoring Operator	pKi
CCCC[C@H](NC(=O)[C@H](CNC(=O)CN(CC(=O)O)CC(=O)O)NC(=O)[C@H](Cc1c[nH]cn1)NC(=O)[C@H](CCC(N)=O)NC(=O)[C@H](CO)NC(=O)CNC(=O)COCCOCCNC(=O)CCCS(=O)(=O)NC(=O)CCCCCCCCCCCCCCCc1nnn[nH]1)C(=O)N[C@H]1CCC(=O)NCCCC[C@@H](C(N)=O)NC(=O)[C@H](Cc2c[nH]c3ccccc23)NC(=O)[C@H](CCCNC(=N)N)NC(=O)[C@@H](Cc2ccccc2)NC(=O)[C@@H]2C[C@@H](O)CN2C1=O [Example 11] ({X2-AEEA}-GSQH[Dap](NTA)[Nle]E[Hyp][dF]RWK-NH2; lactam 7-12)	MC1 receptor (Homo sapiens)	=	5.01
CCCC[C@H](NC(=O)[C@H](CNC(=O)CN(CC(=O)O)CC(=O)O)NC(=O)[C@H](CO)NC(=O)[C@H](CCC(N)=O)NC(=O)[C@H](CO)NC(=O)CNC(=O)COCCOCCNC(=O)CCCCCCCCCCCCCCCc1nnn[nH]1)C(=O)N[C@H]1CCC(=O)NCCCC[C@@H](C(N)=O)NC(=O)[C@H](Cc2c[nH]c3ccccc23)NC(=O)[C@H](CCCNC(=N)N)NC(=O)[C@@H](Cc2ccccc2)NC(=O)[C@@H]2C[C@@H](O)CN2C1=O [Example 4] ({Palmitoyl(16-(5-tetrazolyl))-AEEA}-GSQS[Dap](NTA)[Nle]E[Hyp][dF]RWK-NH2; lactam 7-12)	MC1 receptor (Homo sapiens)	=	5.32
CCCC[C@H](NC(=O)[C@H](CCCCN(CC(=O)O)CC(=O)O)NC(=O)[C@H](CO)NC(=O)[C@H](CCC(N)=O)NC(=O)[C@H](CO)NC(=O)CNC(=O)COCCOCCNC(=O)CCCCCCCCCCCCCCCc1nnn[nH]1)C(=O)N[C@H]1CCC(=O)NCCCC[C@@H](C(N)=O)NC(=O)[C@H](Cc2c[nH]c3ccccc23)NC(=O)[C@H](CCCNC(=N)N)NC(=O)[C@@H](Cc2ccccc2)NC(=O)[C@@H]2C[C@@H](O)CN2C1=O [Example 5] ({Palmitoyl(16-(5-tetrazolyl))-AEEA}-GSQS[Lys(CH2CO2H)2][Nle]E[Hyp][dF]RWK-NH2; lactam 7-12)	MC1 receptor (Homo sapiens)	<	5.00
CCCC[C@H](NC(=O)[C@H](CN(CC(=O)O)CC(=O)O)NC(=O)[C@H](Cc1c[nH]cn1)NC(=O)[C@H](CCC(N)=O)NC(=O)[C@H](CO)NC(=O)CNC(=O)COCCOCCNC(=O)CCCCCCCCCCCCCCCc1nnn[nH]1)C(=O)N[C@H]1CCC(=O)NCCCC[C@@H](C(N)=O)NC(=O)[C@H](Cc2c[nH]c3ccccc23)NC(=O)[C@H](CCCNC(=N)N)NC(=O)[C@@H](Cc2ccccc2)NC(=O)[C@@H]2C[C@@H](O)CN2C1=O [Example 6] ({Palmitoyl(16-(5-tetrazolyl))-AEEA}-GSQH[X1][Nle]E[Hyp][dF]RWK-NH2; lactam 7-12)	MC1 receptor (Homo sapiens)	=	5.23

====

Test: Solubility data of compounds in water over the pH range
Format: physicochemical
Settings: pH 7.61
Where a SMILES comes first, the peptide text is derived from it. Bridges are numbered along the chain shown (N, C = ends). [ ]: non-standard residue; d: D form. The star is where a group is joined. C16 diacid = O=C(O)CCCCCCCCCCCCCCC(=O)*; Hyp = O=C(O)[C@@H]1C[C@@H](O)CN1; NTA = O=C(O)CN(CC(=O)O)CC(=O)*; Nle = CCCC[C@H](N)C(=O)O; AEEA = NCCOCCOCC(=O)O
Test Readout: solubility at 3 days

Compound	Test Readout	Result
CCCC[C@H](NC(=O)[C@H](CCCCNC(=O)CN(CC(=O)O)CC(=O)O)NC(=O)[C@H](CO)NC(=O)[C@H](CCC(N)=O)NC(=O)[C@H](CO)NC(=O)CNC(=O)COCCOCCNC(=O)CCCCCCCCCCCCCCC(=O)O)C(=O)N[C@H]1CCC(=O)NCCCC[C@@H](C(N)=O)NC(=O)[C@H](Cc2c[nH]c3ccccc23)NC(=O)[C@H](CCCNC(=N)N)NC(=O)[C@@H](Cc2ccccc2)NC(=O)[C@@H]2C[C@@H](O)CN2C1=O [Example 21] ({C16 diacid-AEEA}-GSQSK(NTA)[Nle]E[Hyp][dF]RWK-NH2; lactam 7-12)	solubility at 3 days	107 µM

====

Biological target: human MC4 receptor (Homo sapiens, UniProt P32245)
Construct: expressed in transfected cells
Sequence (P32245 whole entry): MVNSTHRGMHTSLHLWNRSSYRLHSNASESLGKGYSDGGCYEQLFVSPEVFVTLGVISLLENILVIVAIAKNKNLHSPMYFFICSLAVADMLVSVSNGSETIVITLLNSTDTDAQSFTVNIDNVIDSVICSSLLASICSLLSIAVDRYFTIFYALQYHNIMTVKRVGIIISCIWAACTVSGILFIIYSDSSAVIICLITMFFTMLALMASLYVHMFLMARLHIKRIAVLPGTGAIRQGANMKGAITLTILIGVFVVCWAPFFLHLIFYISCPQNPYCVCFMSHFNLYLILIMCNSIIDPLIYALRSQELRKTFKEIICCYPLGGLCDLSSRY
Experiment: Assay (V) Melanocortin Receptor 4 (MC4) binding assay
Details: Assay (V) MC4 [Ki] (nM), 125NDP-α-MSH binding, BHK cell membranes
Procedure: Assay (V)—Melanocortin Receptor 4 (MC4) Binding Assay In vitro ^125NDP-α-MSH binding to recombinant BHK cells expressing human MC4 receptor (filtration assay). The assay is performed in 5 ml minisorb vials (Sarstedt No. 55.526) or in 96-well filterplates (Millipore MADVN 6550), and using BHK cells expressing the human MC4 receptor using BHK cells stably expressing the human MC4 receptor. […] The radioactivity retained on the filters is counted using a Cobra II auto gamma counter. […]
Where a SMILES comes first, the peptide text is derived from it. Bridges are numbered along the chain shown (N, C = ends). [ ]: non-standard residue; d: D form. The star is where a group is joined. X2 = O=C(CCCCCCCCCCCCCCCc1nnn[nH]1)NS(=O)(=O)CCCC(=O)*; Hyp = O=C(O)[C@@H]1C[C@@H](O)CN1; NTA = O=C(O)CN(CC(=O)O)CC(=O)*; Nle = CCCC[C@H](N)C(=O)O; Dap = NC[C@H](N)C(=O)O; AEEA = NCCOCCOCC(=O)O

Molecule	System Under Test	Ki [nM]
CCCC[C@H](NC(=O)[C@H](CNC(=O)CN(CC(=O)O)CC(=O)O)NC(=O)[C@H](Cc1c[nH]cn1)NC(=O)[C@H](CCC(N)=O)NC(=O)[C@H](CO)NC(=O)CNC(=O)COCCOCCNC(=O)CCCS(=O)(=O)NC(=O)CCCCCCCCCCCCCCCc1nnn[nH]1)C(=O)N[C@H]1CCC(=O)NCCCC[C@@H](C(N)=O)NC(=O)[C@H](Cc2c[nH]c3ccccc23)NC(=O)[C@H](CCCNC(=N)N)NC(=O)[C@@H](Cc2ccccc2)NC(=O)[C@@H]2C[C@@H](O)CN2C1=O [Example 11] ({X2-AEEA}-GSQH[Dap](NTA)[Nle]E[Hyp][dF]RWK-NH2; lactam 7-12)	human MC4 receptor (Homo sapiens, UniProt P32245)	3.25

Source: patent US20100173835A1
